target: gEgI WT: HSV2 gEgI heterodimer comprising gE and gI wildtype ectodomains (HSV2, UniProt P89475 21-416; P06764 21-256); assay: SPR binning; gEgI captured by mAb 34
Observable: RU (RU)
Quick reminder: number only, in RU, skip the unit.

I am curious: what RU value has been reported for mAb clone 15 (antibody, V domains shown) VH: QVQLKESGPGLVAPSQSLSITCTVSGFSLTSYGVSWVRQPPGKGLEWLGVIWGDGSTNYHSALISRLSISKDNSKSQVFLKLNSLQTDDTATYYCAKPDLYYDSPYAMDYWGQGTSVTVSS VL: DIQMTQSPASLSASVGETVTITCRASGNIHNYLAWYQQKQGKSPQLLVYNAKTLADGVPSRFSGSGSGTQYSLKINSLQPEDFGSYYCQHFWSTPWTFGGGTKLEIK ?
5.9

I am curious: what RU value has been reported for mAb clone 40 (antibody, V domains shown) VH: QIQLVQSGPELKKPGETVKISCKASGYTFTNYGMNWVKQAPGKGLKWMGWINTYTGEPTYADDFKGRFAFSLETSASTAYLQINNLKNEDTATYFCARSLYGYDEGYFDVWGAGTTVTVSS VL: DIQMTQSPASLSASVGETVTITCRASGNIHNYLAWYQQKQGKSPQLLVYNAKTLADGVPSRFSGSGSGTQYSLKINSLQPEDFGSYYCQHFWSTPYTFGGGTKLEIK ?
5.2

I am curious: what RU value has been reported for mAb clone 34 (antibody, V domains shown) VH: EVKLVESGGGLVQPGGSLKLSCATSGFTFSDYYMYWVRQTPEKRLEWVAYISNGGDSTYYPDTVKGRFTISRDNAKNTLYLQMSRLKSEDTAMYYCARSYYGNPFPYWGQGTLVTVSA VL: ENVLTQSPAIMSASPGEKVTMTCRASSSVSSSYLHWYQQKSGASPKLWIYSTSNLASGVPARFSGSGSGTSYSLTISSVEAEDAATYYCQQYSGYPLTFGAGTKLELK ?
-11.1

I am curious: what RU value has been reported for mAb clone 19 (antibody, V domains shown) VH: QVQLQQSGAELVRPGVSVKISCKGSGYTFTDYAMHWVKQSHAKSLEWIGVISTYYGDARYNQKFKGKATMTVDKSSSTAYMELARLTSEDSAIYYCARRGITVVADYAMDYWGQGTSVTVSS VL: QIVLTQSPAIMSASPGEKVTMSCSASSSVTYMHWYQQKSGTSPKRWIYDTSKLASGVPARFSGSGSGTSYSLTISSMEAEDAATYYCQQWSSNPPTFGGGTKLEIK ?
9.3

I am curious: what RU value has been reported for mAb clone 24 (antibody, V domains shown) VH: EVQLQQSGPELVKPGASVKMSCKASGYTFTDYYMKWVKQSHGKSLEWIGDINPNNGDTFYNQKFKGKATLTVDKSSSTAYMQLNSLTSEDSAVYYCARRGFYYYGSRGGIMDYWGQGTSVTVSS VL: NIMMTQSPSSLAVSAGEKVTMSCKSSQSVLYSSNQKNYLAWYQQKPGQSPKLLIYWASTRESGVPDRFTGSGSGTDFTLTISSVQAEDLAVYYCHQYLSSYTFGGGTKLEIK ?
20.7
